Details: in acetic acid, 293.15 K
metric: solubility (mole fraction)
Field format: numeric only.

*Q* Please look up its solubility (mole fraction): `O=C1OC(=O)c2ccc(Br)c3cccc1c23`
*A* 0.00046

###

Details: in ethanol, 298.15 K
metric: solubility (mole fraction)
Respond with the number and no other words.

*Q* // returns reported solubility (mole fraction) for input `O=C1OC(=O)c2ccc(Br)c3cccc1c23`
*A* 9.53e-05

###

Conditions: in methanol, 293.15 K
metric: solubility (mole fraction)
Answer with a number only.

*Q* Query: solubility (mole fraction); subject: `O=C1OC(=O)c2ccc(Br)c3cccc1c23`
*A* 0.000118

###

Settings: in acetone, 293.15 K
metric: solubility (mole fraction)
Just the number.

*Q* Give its solubility (mole fraction) value. Item: `O=C1OC(=O)c2ccc(Br)c3cccc1c23`
*A* 0.00161
